Recorded SPR normalised on Mw at 100 uM values for a group of binders are listed next.
Target: Recombinant Cx43CT (carboxyl terminal domain of connexin43, sequence 255-382 of rCx43 preceded by GPLG) (rat, UniProt P08050)
Sequence (P08050 other isoform, or with tags, fused parts or gaps limits assumed): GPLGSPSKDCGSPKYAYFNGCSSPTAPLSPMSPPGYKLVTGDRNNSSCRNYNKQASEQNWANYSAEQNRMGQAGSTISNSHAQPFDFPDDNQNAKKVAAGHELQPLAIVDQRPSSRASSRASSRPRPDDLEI
Experiment: SPR, Cx43CT immobilised, peptide at 100 uM, response normalised on Mw
Experimental: Biophys. […] Commun. 8(4-6):225-229 (2001); Lang et al., “Surface Plasmon Resonance as a Method to Study the Kinetics and Amplitude of Protein-protein Binding,” in PRACTICAL METHODS IN CARDIOVASCULAR […] […] Specific peptides were presented and, when feasible, dissociation constants (KD) were calculated from the time course of binding and unbinding of the ligand, using a 1:1 (Langmuir) association and dissociation kinetic model (Biacore software package). […]

Check out these entries, answers already filled in.
INSERT INTO assay_data (binder, propertymeasured, reported) VALUES
  ('Ac-RRNYGGGRRNY-NH2 [Compound 2509]', 'SPR normalised on Mw at 100 uM', '4.4 (SPRrespons*100)/Mw'),
  ('Ac-RRNYGGGSAVPFYRRNY-NH2 [Compound 2508]', 'SPR normalised on Mw at 100 uM', '5.9 (SPRrespons*100)/Mw'),
  ('Ac-RRNYVPRRNY-NH2 [Compound 2512]', 'SPR normalised on Mw at 100 uM', '3.5 (SPRrespons*100)/Mw'),
  ('Ac-RRNYGGSAVPFYSHRRNY-NH2 [Compound 2510]', 'SPR normalised on Mw at 100 uM', '7.9 (SPRrespons*100)/Mw'),
  ('Ac-RRNYSHSRRNY-NH2 [Compound 2507]', 'SPR normalised on Mw at 100 uM', '7.3 (SPRrespons*100)/Mw');

Q. Retrieve SPR normalised on Mw at 100 uM measured for Ac-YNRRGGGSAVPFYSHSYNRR-NH2 [Compound 2496] and print it.
A. 6.5 (SPRrespons*100)/Mw

Q. Answer with reported SPR normalised on Mw at 100 uM of Ac-RRNYSAVPFYSHSRRNY-NH2 [Compound 2506]
A. 5.3 (SPRrespons*100)/Mw

Q. Using known records, supply SPR normalised on Mw at 100 uM for Ac-RRNYAVPFRRNY-NH2 [Compound 2511]
A. 5.5 (SPRrespons*100)/Mw

Q. Supply recorded SPR normalised on Mw at 100 uM for Ac-RRNYRRNY-NH2 [Compound 2497] here.
A. 6.8 (SPRrespons*100)/Mw
